assay-system: Polyunsaturated fatty acid 5-lipoxygenase (Homo sapiens)
Sequence (P09917 whole entry): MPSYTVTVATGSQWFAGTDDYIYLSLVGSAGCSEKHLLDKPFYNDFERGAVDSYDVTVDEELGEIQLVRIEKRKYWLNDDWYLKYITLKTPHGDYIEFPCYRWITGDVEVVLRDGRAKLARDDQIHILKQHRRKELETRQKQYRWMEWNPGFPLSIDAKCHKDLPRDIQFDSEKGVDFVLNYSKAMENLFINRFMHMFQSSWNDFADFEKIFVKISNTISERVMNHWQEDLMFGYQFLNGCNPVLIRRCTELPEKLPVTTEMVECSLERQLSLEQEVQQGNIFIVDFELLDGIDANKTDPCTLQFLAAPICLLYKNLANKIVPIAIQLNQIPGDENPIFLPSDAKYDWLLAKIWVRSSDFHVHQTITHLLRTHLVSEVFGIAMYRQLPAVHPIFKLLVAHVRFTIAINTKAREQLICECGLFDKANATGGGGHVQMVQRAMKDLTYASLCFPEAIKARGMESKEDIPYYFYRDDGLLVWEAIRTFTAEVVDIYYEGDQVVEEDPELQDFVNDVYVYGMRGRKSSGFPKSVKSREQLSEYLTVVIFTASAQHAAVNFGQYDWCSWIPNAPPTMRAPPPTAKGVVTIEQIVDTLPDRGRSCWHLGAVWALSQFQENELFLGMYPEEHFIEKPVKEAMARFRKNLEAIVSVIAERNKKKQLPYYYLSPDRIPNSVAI
protocol-text: Inhibition of 5-LOX in A23187 and arachidonic acid-stimulated […]
parameter: pIC50
Numbers only, as −log10 of the molar value.

Record excerpt, results attached:
CCOC(=O)c1c(NC(C)c2ccccc2)[nH]c2ccc(O)cc12 (centres undefined) = 5.34
CCOC(=O)c1c(NC(C)c2ccccc2)[nH]c2ccccc12 (centres undefined) = 5.23
CCOC(=O)c1c(N2CCN(c3ccc(Cl)cc3)CC2)[nH]c2ccc(O)cc12 = 5.24

# evaluate next
Request: Item under review: CC(Nc1[nH]c2ccc(O)cc2c1C#N)c1ccccc1 (centres undefined) . Reported pIC50?
Response: 5.39
